For each entry below, report its area under concentration-response curve value.
test system: CU-ACC2; test: area under concentration-response curve (viability) (AUC (a.u.)); higher = less active; details: 48 h
API doc: respond with a numeric literal and nothing else, no unit.

// query I would be grateful if you could share the reported area under concentration-response curve for CCOCOC[C@H](C[C@H](C)C(=O)NO)NC(=O)c1ccc(Oc2ccccc2)cc1 .
// result 636

// query I would be grateful if you could share the reported area under concentration-response curve for CC1SC/2=C(C(O)=O)/C(=O)C3=CC(=C(C=C3N12)N4CCN(CC4)C\C5=C(C)\OC(=O)O5)F (stereo not drawn) .
// result 612

// query I would be grateful if you could share the reported area under concentration-response curve for Cc1cnc(Nc2cccc(CN3CCOCC3)c2)nc1Nc1cccc([S+](=O)([O-])NC(C)(C)C)c1 .
// result 508

// query I would be grateful if you could share the reported area under concentration-response curve for O=C(COCC(=O)N1CCN(C(c2ccccc2)c2ccccc2)CC1)Nc1ccc(Cl)cc1C(=O)O .
// result 529

// query I would be grateful if you could share the reported area under concentration-response curve for Oc1ccc(-c2ccc(-c3cc(Nc4cccc(CNC5CC5)c4)[nH]n3)cc2)c(O)c1 .
// result 556

// query I would be grateful if you could share the reported area under concentration-response curve for CC(C)(O)c1cc2nc(-c3cnc(N)nc3)nc(N3CCOCC3)c2s1 .
// result 379

// query I would be grateful if you could share the reported area under concentration-response curve for COc1cc(/C=C(\C#N)C(=O)Nc2nnc(C(F)(F)F)s2)ccc1OCc1ccc(C(F)(F)F)cc1C(F)(F)F .
// result 488

// query I would be grateful if you could share the reported area under concentration-response curve for Cc1cc(C(=O)N2CCN(c3cccc(Cl)c3)CC2)n(-c2ccccc2)n1 .
// result 648

---

tested on: CU-ACC1; experiment: area under concentration-response curve (viability) (AUC (a.u.)); higher = less active; details: 48 h
Assay readout: area under concentration-response curve
API doc: respond with a numeric literal and nothing else, no unit.

// query I would be grateful if you could share the reported area under concentration-response curve for OC[C@H]1O[C@@H](S[C@@H]2O[C@H](CO)[C@H](O)[C@H](n3cc(-c4cccc(F)c4)nn3)[C@H]2O)[C@H](O)[C@@H](n2cc(-c3cccc(F)c3)nn2)[C@H]1O .
// result 507

// query I would be grateful if you could share the reported area under concentration-response curve for C[C@]12Cc3cn[nH]c3C[C@@H]1CC[C@@H]1[C@@H]2CC[C@@]2(C)[C@H]1CC[C@]2(C)O .
// result 335

// query I would be grateful if you could share the reported area under concentration-response curve for CN1CCN(CCCN2c3ccccc3Sc3ccc(C(F)(F)F)cc32)CC1 .
// result 441

// query I would be grateful if you could share the reported area under concentration-response curve for c1ccc2c(-c3cnn4cc(-c5ccc(N6CCNCC6)cc5)cnc34)ccnc2c1 .
// result 434

// query I would be grateful if you could share the reported area under concentration-response curve for COc1nc(C)cnc1N[S+](=O)([O-])c1cccnc1-c1ccc(-c2nnco2)cc1 .
// result 520

// query I would be grateful if you could share the reported area under concentration-response curve for N[S+](=O)([O-])c1ccc(NC(=S)N2CCN(C/C=C/c3ccccc3)CC2)cc1 .
// result 494

// query I would be grateful if you could share the reported area under concentration-response curve for O=C([O-])C[C@H](O)C[C@H](O)/C=C/c1c(C2CC2)nc2ccccc2c1-c1ccc(F)cc1 .
// result 394

// query I would be grateful if you could share the reported area under concentration-response curve for CCN(CC)CCCC(C)Nc1ccnc2cc(Cl)ccc12 (stereo not drawn) .
// result 464

---

test system: CU-ACC2; assay: AC50 viability; higher = less potent; settings: 48 h
Label 1.0 when AC50 viability < 8 µM; otherwise 0.0.

// query Strictly below 8 µM: is that where AC50 viability of COc1cc2c(Nc3ccc(Br)cc3F)ncnc2cc1OCC1CCN(C)CC1 sits?
// result 0.0

// query Strictly below 8 µM: is that where AC50 viability of CCn1nnc2c(N3CCOCC3)nc(-c3ccc(NC(=O)Nc4ccc(C(=O)N5CCN(C)CC5)cc4)cc3)nc21 sits?
// result 1.0

// query Strictly below 8 µM: is that where AC50 viability of N#Cc1ccc2c(c1)CN([S+](=O)([O-])c1cccs1)[C@H](Cc1ccccc1)CN2Cc1cnc[nH]1 sits?
// result 1.0

// query Strictly below 8 µM: is that where AC50 viability of CN1C/C=C/CCOc2cccc(c2)-c2ccnc(n2)Nc2cccc(c2)C1 sits?
// result 1.0

// query Strictly below 8 µM: is that where AC50 viability of COc1cc2c(Nc3ccc(Cl)c(Cl)c3F)ncnc2cc1OC[C@@H]1C[C@@H]2CN(C)C[C@@H]2C1 sits?
// result 0.0

// query Strictly below 8 µM: is that where AC50 viability of Clc1ccc(C(Cn2ccnc2)OCc2c(Cl)cccc2Cl)c(Cl)c1 (configuration not stated) sits?
// result 0.0

// query Strictly below 8 µM: is that where AC50 viability of O=C(Nc1cc(Oc2cc(F)c(NC(=O)C3(C(=O)Nc4ccc(F)cc4)CC3)cc2F)ccn1)C1CC1 sits?
// result 0.0

// query Strictly below 8 µM: is that where AC50 viability of COCCN1CCN(Cc2ccc(-c3n[nH]c4c3C(=O)c3c(NC(=O)NN5CCOCC5)cccc3-4)cc2)CC1 sits?
// result 1.0

// query Strictly below 8 µM: is that where AC50 viability of COc1ccc([S+](=O)([O-])N(C(C)=O)c2ccccc2/C=C/c2cc[n+]([O-])cc2)cc1 sits?
// result 0.0

// query Strictly below 8 µM: is that where AC50 viability of NC[C@@](O)(c1ccc(Cl)cc1)c1ccc(-c2cn[nH]c2)cc1 sits?
// result 0.0

// query Strictly below 8 µM: is that where AC50 viability of Oc1ccc2ccccc2c1SSc1c(O)ccc2ccccc12 sits?
// result 0.0

// query Strictly below 8 µM: is that where AC50 viability of C[C@@H]\1CC(=O)N\N=C1C2=CC=C(NN=C(C#N)C#N)C=C2 sits?
// result 0.0

// query Strictly below 8 µM: is that where AC50 viability of CCN1CCN(C(=O)Cc2ccc(Nc3ncc(F)c(Nc4ccc(C(=O)Nc5ccccc5Cl)cc4)n3)cc2)CC1 sits?
// result 0.0

// query Strictly below 8 µM: is that where AC50 viability of CC[C@@H]1C(=O)N(C)c2cnc(Nc3ccc(C(=O)NC4CCC(N5CCN(CC6CC6)CC5)CC4)cc3OC)nc2N1C(C)C (some centres not stated) sits?
// result 0.0

// query Strictly below 8 µM: is that where AC50 viability of c1cc(-c2cnn3cc(-c4ccc(OCCN5CCCCC5)cc4)cnc23)ccn1 sits?
// result 0.0

// query Strictly below 8 µM: is that where AC50 viability of CNC(=O)c1cc(COc2nnc(Nc3ccc(Cl)cc3)c3ccoc23)ccn1 sits?
// result 0.0

// query Strictly below 8 µM: is that where AC50 viability of CCCCNc1ncc2c(-c3ccc(CN4CCN(C)CC4)cc3)cn([C@H]3CC[C@H](O)CC3)c2n1 sits?
// result 1.0

---

system: CU-ACC1; assay: area under concentration-response curve (viability) (AUC (a.u.)); higher = less active; settings: 48 h
Please mark True if the recorded area under concentration-response curve is equal to or greater than 500, and False if it falls below.

// query Could you verify whether the entry OC[C@@H](O)[C@@H](O)[C@H](O)[C@@H](O)CO shows area under concentration-response curve of no less than 500?
// result True

// query Could you verify whether the entry C/C(=C\c1csc(C)n1)[C@@H]1C[C@@H]2O[C@]2(C)CCC[C@H](C)[C@H](O)[C@@H](C)C(=O)C(C)(C)[C@@H](O)CC(=O)O1 shows area under concentration-response curve of no less than 500?
// result False

// query Could you verify whether the entry CC[S+]([O-])(=O)NC1=CC(=C(OC2=C(F)C=C(F)C=C2)C=C1)\C3=C\N(C)C(=O)C4=C3C=C[NH]4 shows area under concentration-response curve of no less than 500?
// result False

// query Could you verify whether the entry CCc1c(C(=O)NNC(=O)[C@@H](O)c2cc(F)cc(F)c2)ccc(O)c1C shows area under concentration-response curve of no less than 500?
// result False

// query Could you verify whether the entry O=C1c2ccccc2-[n+]2ccc3c([nH]c4ccccc43)c21 shows area under concentration-response curve of no less than 500?
// result False

// query Could you verify whether the entry COC1CCC(C(=O)c2ccc3nc4c(cc3c2)CCCO4)CC1 (stereo not drawn) shows area under concentration-response curve of no less than 500?
// result False

// query Could you verify whether the entry O=C(Nc1cnn2ccc(N3CCC[C@@H]3c3cc(F)ccc3F)nc12)N1CC[C@H](O)C1 shows area under concentration-response curve of no less than 500?
// result True

// query Could you verify whether the entry COc1nnc2ccc(N3CCC(c4ccc(OCCN5CCN(C)C(=O)[C@H]5C)cc4)CC3)nn12 shows area under concentration-response curve of no less than 500?
// result False

// query Could you verify whether the entry CC(S)C(=O)NCC(=O)O (stereo not drawn) shows area under concentration-response curve of no less than 500?
// result True

// query Could you verify whether the entry C[S+]([O-])(=O)C1=CC=C(C=C1)C/2=C(/C(=O)OC2)C3=CC=CC=C3 shows area under concentration-response curve of no less than 500?
// result False

// query Could you verify whether the entry COC(=O)[C@@H]1CC/2=C/C(=O)CC[C@]2(C)[C@@]34O[C@@H]3C[C@@]5(C)[C@@H](CC[C@@]56CCC(=O)O6)[C@H]14 shows area under concentration-response curve of no less than 500?
// result False

// query Could you verify whether the entry CC(C)(C)C(=O)N1\N=C/C[C@H]1C2=CC=CC=C2 shows area under concentration-response curve of no less than 500?
// result True

// query Could you verify whether the entry CO[C@@H]1[C@H](N(C)C(=O)c2ccccc2)C[C@H]2O[C@]1(C)n1c3ccccc3c3c4c(c5c6ccccc6n2c5c31)C(=O)NC4 shows area under concentration-response curve of no less than 500?
// result True

// query Could you verify whether the entry COc1cc2c(Oc3ccc4[nH]c(C)cc4c3F)ccnc2cc1OCC1(N)CC1 shows area under concentration-response curve of no less than 500?
// result True

Cited source: the supplement of paper PMC10949913
